Data provenance is ChEMBL document CHEMBL3784997.

Target: Adenosine receptor A2a (Homo sapiens) (UniProt P29274)
Sequence (P29274 whole entry): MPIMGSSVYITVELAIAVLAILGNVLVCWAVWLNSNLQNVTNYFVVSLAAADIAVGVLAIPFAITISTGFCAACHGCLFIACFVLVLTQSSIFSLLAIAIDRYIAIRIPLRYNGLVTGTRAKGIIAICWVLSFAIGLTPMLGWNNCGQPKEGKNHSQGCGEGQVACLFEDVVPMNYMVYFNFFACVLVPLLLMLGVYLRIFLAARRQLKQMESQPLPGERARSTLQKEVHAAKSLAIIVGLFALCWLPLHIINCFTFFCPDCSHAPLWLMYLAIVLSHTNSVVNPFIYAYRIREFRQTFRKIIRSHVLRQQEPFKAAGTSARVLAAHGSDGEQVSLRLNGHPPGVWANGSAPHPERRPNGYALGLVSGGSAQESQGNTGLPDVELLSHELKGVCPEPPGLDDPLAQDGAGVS
Assay: Displacement of [3H]ZM241385 from human Adenosine A2A receptor expressed in HeLa cells at 1 uM after 30 mins
Assay type: cell-based
measured.quantity: Activity (%)
Field: numeric (%). Do not append units.

*Q* Fill blank: measured Activity of the compound CC1=C(C(=O)OC(C)C)C(c2ccoc2)CC(=O)N1 (racemic) is ____.
*A* 25

*Q* Reported Activity for CC1=C(C(=O)OC(C)C)C(c2cccs2)CC(=O)N1 (racemic) : what is it?
*A* 1

*Q* Please give the measured Activity for this compound: CC1=C(C(=O)OC(C)C)C(c2ccsc2)n2ccnc2N1 (racemic)
*A* 1

*Q* May I ask what Activity has been recorded for CC1=C(C(=O)OC(C)C)C(c2ccoc2)NC(=O)N1 (stereo unspecified) ?
*A* 26

*Q* Please report the recorded Activity for CCOC(=O)C1=C(C)NC(=O)CC1c1ccoc1 (racemic) .
*A* 8

*Q* Any idea what Activity was measured for CC1=C(C(=O)OC(C)C)C(c2ccoc2)n2ncnc2N1 (racemic) ?
*A* 2

*Q* Param item = CC1=C(C(=O)OC(C)C)C(c2cccs2)NC(=O)N1 (stereo unspecified) ; retrieve measured Activity.
*A* 19

*Q* So what's the measured Activity for this one? CC1=C(C(=O)OC(C)C)C(c2cccs2)n2c(nc3ccccc32)N1 (racemic)
*A* 17

*Q* So what does the record say about Activity for CCOC(=O)C1=C(C)Nc2nc3ccccc3n2C1c1ccoc1 (racemic) ?
*A* 11

*Q* Could you tell me which Activity is on file for CCOC(=O)C1=C(C)NC(=O)NC1c1ccsc1 (stereo unspecified) ?
*A* 39

*Q* What does the data say about its Activity? Entry: CCOC(=O)C1=C(C)NC(=O)NC1c1ccco1 (stereo unspecified)
*A* 41
